// data source = the NIST ThermoML archive (doi:10.1016/j.fluid.2018.07.028)

TEST SUMMARY: activity coefficient (dimensionless); of the first substance listed, at infinite dilution; xn = mol fraction of the nth substance listed
ASSAY CONTEXT: 408.15 K; 101.33 kPa; Liquid; Chromatography; x1 = 0
activity coefficient reference
Respond using a number only.

Reference set (2 entries):
COMPOUND: COC(C)(C)C [2-methoxy-2-methylpropane] + CCCC[P+](CCCC)(CCCC)CCCC.O=S(=O)([N-]S(=O)(=O)C(F)(F)F)C(F)(F)F
READOUT LABEL: activity coefficient
MEASURED: 2.01
//
COMPOUND: CCc1ccccc1 [ethylbenzene] + CCCC[P+](CCCC)(CCCC)CCCC.O=S(=O)([N-]S(=O)(=O)C(F)(F)F)C(F)(F)F
READOUT LABEL: activity coefficient
MEASURED: 1.71

Prompt: activity coefficient for C=CCCCCCCCC [1-decene] + CCCC[P+](CCCC)(CCCC)CCCC.O=S(=O)([N-]S(=O)(=O)C(F)(F)F)C(F)(F)F ?
Response: 7.25

Prompt: activity coefficient for CCC(C)(C)C [2,2-dimethylbutane] + CCCC[P+](CCCC)(CCCC)CCCC.O=S(=O)([N-]S(=O)(=O)C(F)(F)F)C(F)(F)F ?
Response: 4.12

Prompt: activity coefficient for CO [methanol] + CCCC[P+](CCCC)(CCCC)CCCC.O=S(=O)([N-]S(=O)(=O)C(F)(F)F)C(F)(F)F ?
Response: 1.06

Prompt: activity coefficient for CCCCO [butan-1-ol] + CCCC[P+](CCCC)(CCCC)CCCC.O=S(=O)([N-]S(=O)(=O)C(F)(F)F)C(F)(F)F ?
Response: 1.42

* * *

TEST SUMMARY: activity coefficient (dimensionless); of the first substance listed, at infinite dilution; xn = mol fraction of the nth substance listed
ASSAY CONTEXT: 368.15 K; 101.33 kPa; Liquid; Chromatography; x1 = 0
Could you please mark Satisfied for values of activity coefficient below 2 and Not satisfied for values at or above it?

MOLECULE: C=CCCCC [hex-1-ene] + CCCC[P+](CCCC)(CCCC)CCCC.O=S(=O)([N-]S(=O)(=O)C(F)(F)F)C(F)(F)F
CATEGORY LABEL: Not satisfied

MOLECULE: CCCC(C)=O [pentan-2-one] + CCCC[P+](CCCC)(CCCC)CCCC.O=S(=O)([N-]S(=O)(=O)C(F)(F)F)C(F)(F)F
CATEGORY LABEL: Satisfied

MOLECULE: CCC(C)(C)OC [2-methoxy-2-methylbutane] + CCCC[P+](CCCC)(CCCC)CCCC.O=S(=O)([N-]S(=O)(=O)C(F)(F)F)C(F)(F)F
CATEGORY LABEL: Not satisfied

MOLECULE: C=Cc1ccccc1 [styrene] + CCCC[P+](CCCC)(CCCC)CCCC.O=S(=O)([N-]S(=O)(=O)C(F)(F)F)C(F)(F)F
CATEGORY LABEL: Satisfied

MOLECULE: C=COC(C)=O [vinyl acetate] + CCCC[P+](CCCC)(CCCC)CCCC.O=S(=O)([N-]S(=O)(=O)C(F)(F)F)C(F)(F)F
CATEGORY LABEL: Satisfied

MOLECULE: CC(C)CC(C)(C)C [2,2,4-trimethylpentane] + CCCC[P+](CCCC)(CCCC)CCCC.O=S(=O)([N-]S(=O)(=O)C(F)(F)F)C(F)(F)F
CATEGORY LABEL: Not satisfied

MOLECULE: C1CCCC1 [cyclopentane] + CCCC[P+](CCCC)(CCCC)CCCC.O=S(=O)([N-]S(=O)(=O)C(F)(F)F)C(F)(F)F
CATEGORY LABEL: Not satisfied

MOLECULE: C=C(C)c1ccccc1 [(1-methylethenyl)benzene] + CCCC[P+](CCCC)(CCCC)CCCC.O=S(=O)([N-]S(=O)(=O)C(F)(F)F)C(F)(F)F
CATEGORY LABEL: Satisfied

MOLECULE: CC(C)O [propan-2-ol] + CCCC[P+](CCCC)(CCCC)CCCC.O=S(=O)([N-]S(=O)(=O)C(F)(F)F)C(F)(F)F
CATEGORY LABEL: Satisfied

MOLECULE: C=CCCC [1-pentene] + CCCC[P+](CCCC)(CCCC)CCCC.O=S(=O)([N-]S(=O)(=O)C(F)(F)F)C(F)(F)F
CATEGORY LABEL: Not satisfied

Prompt: Bench note: check whether CCCO [propan-1-ol] + CCCC[P+](CCCC)(CCCC)CCCC.O=S(=O)([N-]S(=O)(=O)C(F)(F)F)C(F)(F)F shows activity coefficient below 2
Response: Satisfied

Prompt: Bench note: check whether CCCCCCCC [octane] + CCCC[P+](CCCC)(CCCC)CCCC.O=S(=O)([N-]S(=O)(=O)C(F)(F)F)C(F)(F)F shows activity coefficient below 2
Response: Not satisfied

Prompt: Bench note: check whether CCCC=O [butanal] + CCCC[P+](CCCC)(CCCC)CCCC.O=S(=O)([N-]S(=O)(=O)C(F)(F)F)C(F)(F)F shows activity coefficient below 2
Response: Satisfied

Prompt: Bench note: check whether C1CCCCC1 [cyclohexane] + CCCC[P+](CCCC)(CCCC)CCCC.O=S(=O)([N-]S(=O)(=O)C(F)(F)F)C(F)(F)F shows activity coefficient below 2
Response: Not satisfied

Prompt: Bench note: check whether CCC(C)CC [3-methylpentane] + CCCC[P+](CCCC)(CCCC)CCCC.O=S(=O)([N-]S(=O)(=O)C(F)(F)F)C(F)(F)F shows activity coefficient below 2
Response: Not satisfied

* * *

TEST SUMMARY: activity coefficient (dimensionless); of the first substance listed, at infinite dilution; xn = mol fraction of the nth substance listed
ASSAY CONTEXT: 378.15 K; 101.33 kPa; Liquid; Chromatography; x1 = 0
activity coefficient reference
Respond using a number only.

COMPOUND: CC(C)O [propan-2-ol] + CCCC[P+](CCCC)(CCCC)CCCC.O=S(=O)([N-]S(=O)(=O)C(F)(F)F)C(F)(F)F
activity coefficient: 1.37

COMPOUND: CCC(C)(C)OC [2-methoxy-2-methylbutane] + CCCC[P+](CCCC)(CCCC)CCCC.O=S(=O)([N-]S(=O)(=O)C(F)(F)F)C(F)(F)F
activity coefficient: 2.13

COMPOUND: O [water] + CCCC[P+](CCCC)(CCCC)CCCC.O=S(=O)([N-]S(=O)(=O)C(F)(F)F)C(F)(F)F
activity coefficient: 3.53

COMPOUND: C1COCCO1 [1,4-dioxane] + CCCC[P+](CCCC)(CCCC)CCCC.O=S(=O)([N-]S(=O)(=O)C(F)(F)F)C(F)(F)F
activity coefficient: 0.853

COMPOUND: C=CCCCCCC [oct-1-ene] + CCCC[P+](CCCC)(CCCC)CCCC.O=S(=O)([N-]S(=O)(=O)C(F)(F)F)C(F)(F)F
activity coefficient: 4.94

Prompt: activity coefficient for CCCO [propan-1-ol] + CCCC[P+](CCCC)(CCCC)CCCC.O=S(=O)([N-]S(=O)(=O)C(F)(F)F)C(F)(F)F ?
Response: 1.42

Prompt: activity coefficient for C#CCCC [1-pentyne] + CCCC[P+](CCCC)(CCCC)CCCC.O=S(=O)([N-]S(=O)(=O)C(F)(F)F)C(F)(F)F ?
Response: 1.64

Prompt: activity coefficient for c1ccccc1 [benzene] + CCCC[P+](CCCC)(CCCC)CCCC.O=S(=O)([N-]S(=O)(=O)C(F)(F)F)C(F)(F)F ?
Response: 0.901

Prompt: activity coefficient for C=CCCCCC [1-heptene] + CCCC[P+](CCCC)(CCCC)CCCC.O=S(=O)([N-]S(=O)(=O)C(F)(F)F)C(F)(F)F ?
Response: 4.05

* * *

TEST SUMMARY: activity coefficient (dimensionless); of the first substance listed, at infinite dilution; xn = mol fraction of the nth substance listed
ASSAY CONTEXT: 408.15 K; 101.33 kPa; Liquid; Chromatography; x1 = 0
activity coefficient reference

COMPOUND: CCCc1ccccc1 [propylbenzene] + CCCC[P+](CCCC)(CCCC)CCCC.O=S(=O)([N-]S(=O)(=O)C(F)(F)F)C(F)(F)F
READOUT LABEL: activity coefficient
MEASURED: 2.12

Prompt: activity coefficient for C#CCCCCC [1-heptyne] + CCCC[P+](CCCC)(CCCC)CCCC.O=S(=O)([N-]S(=O)(=O)C(F)(F)F)C(F)(F)F ?
Response: 2.62

Prompt: activity coefficient for C=CCCCCCC [oct-1-ene] + CCCC[P+](CCCC)(CCCC)CCCC.O=S(=O)([N-]S(=O)(=O)C(F)(F)F)C(F)(F)F ?
Response: 5.01

Prompt: activity coefficient for CCCCCO [pentan-1-ol] + CCCC[P+](CCCC)(CCCC)CCCC.O=S(=O)([N-]S(=O)(=O)C(F)(F)F)C(F)(F)F ?
Response: 1.59

Prompt: activity coefficient for CCCOCCC [dipropyl ether] + CCCC[P+](CCCC)(CCCC)CCCC.O=S(=O)([N-]S(=O)(=O)C(F)(F)F)C(F)(F)F ?
Response: 2.98

Prompt: activity coefficient for C1CCCC1 [cyclopentane] + CCCC[P+](CCCC)(CCCC)CCCC.O=S(=O)([N-]S(=O)(=O)C(F)(F)F)C(F)(F)F ?
Response: 2.42

Prompt: activity coefficient for CCC(C)(C)OC [2-methoxy-2-methylbutane] + CCCC[P+](CCCC)(CCCC)CCCC.O=S(=O)([N-]S(=O)(=O)C(F)(F)F)C(F)(F)F ?
Response: 2.32
